Conditions: 298.15 K; 101.33 kPa; Liquid
readout type: speed of sound (m/s)
All answers are understood in m/s, so give the number only.

Some molecules with recorded speed of sound:
INSERT INTO assay_data (molecule, val) VALUES
  ('CCO', 1143.1),
  ('CCCCCO', 1273.3),
  ('CC(C)CO', 1185.6);

Turning to the following molecule.
Quick one: speed of sound of CCOC(C)=O [ethyl acetate] ?
1137.7

----------
Below, each of the compounds is paired with its reported refractive index value.
Experiment: refractive index (Na D-line) (dimensionless)
Conditions: 298.15 K; 101.33 kPa; Liquid; Standard Abbe refractometry
Please state the value as a number alone, without comment.

INSERT INTO assay_data (compound, readout_type, val) VALUES
  ('CCO', 'refractive index', 1.35916),
  ('CC(C)CO', 'refractive index', 1.3937);

Quick one: refractive index of CCCCCO ?
1.4077

Quick one: refractive index of CCOC(C)=O [ethyl acetate] ?
1.3698

----------
Settings: 298.15 K; 101.33 kPa; Liquid
readout type: mass density (kg/m3)
All answers are understood in kg/m3, so give the number only.

Some compounds with recorded mass density:
INSERT INTO measurements (compound, val) VALUES
  ('CCO', 785.36),
  ('CCOC(C)=O [ethyl acetate]', 894.24),
  ('CCCCCO', 810.96);

Turning to the following compound.
Quick one: mass density of CC(C)CO ?
797.84
